Hello, the source for this data is patent US7994281, in case you need it.

# Assayed target: T1, DR5 (TRAIL-R2) Fc, recombinant receptor from R&D Systems (UniProt O14763 54-182, limits assumed)
# T1 construct: also called soluble TRAIL-R2 Fc; immobilized TRAIL-R2 Fc; not shown: Fc part of the bought Fc fusion
# T1 sequence (O14763 54-182 limits assumed): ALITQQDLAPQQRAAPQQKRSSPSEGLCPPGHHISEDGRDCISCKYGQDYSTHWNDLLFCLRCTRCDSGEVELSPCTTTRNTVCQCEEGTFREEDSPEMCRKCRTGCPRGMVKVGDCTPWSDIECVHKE
# Measurement notes: SPR, Biacore 3000, 37 C, receptor Fc on CM5 chip, ligand 0.1-250 nM
Endpoint name: fold improvement in binding relative to wild-type TRAIL

Examples from the recorded data:
{"Binder": "TRAIL mutant D269R (ligand) VRERGPQRVAAHITGTRGRSNTLSSPNSKNEKALGRKINSWESSRSGHSFLSNLHLRNGELVIHEKGFYYIYSQTYFRFQEEIKENTKNDKQMVQYIYKYTSYPDPILLMKSARNSCWSKDAEYGLYSIYQGGIFELKENDRIFVSVTNEHLIDMRHEASFFGAFLVG", "Experimental value": "> 10 fold"}
{"Binder": "TRAIL mutant D269K (ligand) VRERGPQRVAAHITGTRGRSNTLSSPNSKNEKALGRKINSWESSRSGHSFLSNLHLRNGELVIHEKGFYYIYSQTYFRFQEEIKENTKNDKQMVQYIYKYTSYPDPILLMKSARNSCWSKDAEYGLYSIYQGGIFELKENDRIFVSVTNEHLIDMKHEASFFGAFLVG", "Experimental value": "> 10 fold"}

Next, consider the following binder.
Exercise: // fetch fold improvement in binding relative to wild-type TRAIL given entry TRAIL mutant D269H (ligand) VRERGPQRVAAHITGTRGRSNTLSSPNSKNEKALGRKINSWESSRSGHSFLSNLHLRNGELVIHEKGFYYIYSQTYFRFQEEIKENTKNDKQMVQYIYKYTSYPDPILLMKSARNSCWSKDAEYGLYSIYQGGIFELKENDRIFVSVTNEHLIDMHHEASFFGAFLVG
Key: > 10 fold
